Cited source for all entries: patent US20250152746A1

# Test system: PCSK9 gene
# assayInfo: PCSK9 gRNA/SpCas9 editing in primary human hepatocytes (Tables 2, 4)
# Type: cell-based
# experimentalSetup: 2500 ng/RNA/mL; SpCas9 mRNA MS002 1:1 by weight
# Description: In set of experiments, PCSK9 gRNAs were co-transfected with an equivalent amount (1:1 ratio by weight) of in vitro transcribed commercially available SpCas9 mRNA MS002 purchased from TriLink Biotechnologies into primary human hepatocytes at 2500, 500, or 100 ng/RNA/mL and processed as described in detailed methods. Extracted genomic DNA was analyzed for gene editing at the target site with next-generation sequencing of PCR amplicons generated around the target sites. […]
In the oligonucleotide strings, read from the 5' end, every base follows the letter of its sugar. An asterisk marks phosphorothioate; unmarked linkages are phosphodiester. Other units and linkages are bracketed, terminal groups are in braces. A string of capitals states the bases alone. m = 2'-O-methyl; r = 2'-OH (RNA)
Labelling field: enter Y if recorded Human Primary Hepatocyte Editing % 2500 is less than 20%. Enter N if it equals or exceeds that cut-off.

1. GA197: PCSK9 gRNA; protospacer AGTGACCACCGGGAAATCGA (SEQ ID NO: 191) (nucleic acid, sugars from the 5' end m3 r94 m3, linkages s3 o93 s3 (s phosphorothioate, o phosphodiester), T or U not given here) guide: AGUGACCACCGGGAAAUCGAGUUUUAGAGCUAGAAAUAGCAAGUUAAAAUAAGGCUAGUCCGUUAUCAACUUGAAAAAGUGGCACCGAGUCGGUGCUUUU
Y
2. GA245: PCSK9 gRNA; protospacer GTGCTGCTGCCCCTGGCGGG (SEQ ID NO: 238) (nucleic acid, sugars from the 5' end m3 r94 m3, linkages s3 o93 s3 (s phosphorothioate, o phosphodiester), T or U not given here) guide: GUGCUGCUGCCCCUGGCGGGGUUUUAGAGCUAGAAAUAGCAAGUUAAAAUAAGGCUAGUCCGUUAUCAACUUGAAAAAGUGGCACCGAGUCGGUGCUUUU
Y
3. GA209: PCSK9 gRNA; protospacer CTTGGCAGTTGAGCACGCGC (SEQ ID NO: 203) (nucleic acid, sugars from the 5' end m3 r94 m3, linkages s3 o93 s3 (s phosphorothioate, o phosphodiester), T or U not given here) guide: CUUGGCAGUUGAGCACGCGCGUUUUAGAGCUAGAAAUAGCAAGUUAAAAUAAGGCUAGUCCGUUAUCAACUUGAAAAAGUGGCACCGAGUCGGUGCUUUU
N
4. GA205: PCSK9 gRNA; protospacer CCCTGCCCTCGATTTCCCGG (SEQ ID NO: 199) (nucleic acid, sugars from the 5' end m3 r94 m3, linkages s3 o93 s3 (s phosphorothioate, o phosphodiester), T or U not given here) guide: CCCUGCCCUCGAUUUCCCGGGUUUUAGAGCUAGAAAUAGCAAGUUAAAAUAAGGCUAGUCCGUUAUCAACUUGAAAAAGUGGCACCGAGUCGGUGCUUUU
N
5. GA173: PCSK9 gRNA; protospacer CTTGGTGAGGTATCCCCGGC (SEQ ID NO: 167) (nucleic acid, sugars from the 5' end m3 r94 m3, linkages s3 o93 s3 (s phosphorothioate, o phosphodiester), T or U not given here) guide: CUUGGUGAGGUAUCCCCGGCGUUUUAGAGCUAGAAAUAGCAAGUUAAAAUAAGGCUAGUCCGUUAUCAACUUGAAAAAGUGGCACCGAGUCGGUGCUUUU
N
6. GA236: PCSK9 gRNA; protospacer AGCCCTCGCCAGGCGCTGGC (SEQ ID NO: 229) (nucleic acid, sugars from the 5' end m3 r94 m3, linkages s3 o93 s3 (s phosphorothioate, o phosphodiester), T or U not given here) guide: AGCCCUCGCCAGGCGCUGGCGUUUUAGAGCUAGAAAUAGCAAGUUAAAAUAAGGCUAGUCCGUUAUCAACUUGAAAAAGUGGCACCGAGUCGGUGCUUUU
N
7. GA215: PCSK9 gRNA; protospacer CAGCGGCCGGGATGCCGGCG (SEQ ID NO: 209) (nucleic acid, sugars from the 5' end m3 r94 m3, linkages s3 o93 s3 (s phosphorothioate, o phosphodiester), T or U not given here) guide: CAGCGGCCGGGAUGCCGGCGGUUUUAGAGCUAGAAAUAGCAAGUUAAAAUAAGGCUAGUCCGUUAUCAACUUGAAAAAGUGGCACCGAGUCGGUGCUUUU
Y
8. GA225: PCSK9 gRNA; protospacer GGCATCGTCCCGGAAGTTGC (SEQ ID NO: 219) (nucleic acid, sugars from the 5' end m3 r94 m3, linkages s3 o93 s3 (s phosphorothioate, o phosphodiester), T or U not given here) guide: GGCAUCGUCCCGGAAGUUGCGUUUUAGAGCUAGAAAUAGCAAGUUAAAAUAAGGCUAGUCCGUUAUCAACUUGAAAAAGUGGCACCGAGUCGGUGCUUUU
Y
9. GA171: PCSK9 gRNA; protospacer TCTTGGTGAGGTATCCCCGG (SEQ ID NO: 165) (nucleic acid, 2'-O-methyl at 1, 2, other sugars, backbone and T or U not given here; further chemistry not fully specified) guide: UCTTGGTGAGGTATCCCCGGGTTTTAGAGCTAGAAATAGCAAGTTAAAATAAGGCTAGTCCGTTATCAACTTGAAAAAGTGGCACCGAGTCGGTGCTTTT
N
10. GA185: PCSK9 gRNA; protospacer AGACATGCAGGATCTTGGTG (SEQ ID NO: 179) (nucleic acid) guide: mA*mG*mA*rCrArUrGrCrArGrGrArUrCrUrUrGrGrUrGrGrUrUrUrUrArGrArGrCrUrArGrArArArUrArGrCrArArGrUrUrArArArArUrArArGrGrCrUrArGrUrCrCrGrUrUrArUrCrArArCrUrUrGrArArArArArGrUrGrGrCrArCrCrGrArGrUrCrGrGrUrGrCrU*mU*mU*mU
N
11. GA219: PCSK9 gRNA; protospacer GGCAGGGGTGGTCAGCGGCC (SEQ ID NO: 213) (nucleic acid, sugars from the 5' end m3 r94 m3, linkages s3 o93 s3 (s phosphorothioate, o phosphodiester), T or U not given here) guide: GGCAGGGGUGGUCAGCGGCCGUUUUAGAGCUAGAAAUAGCAAGUUAAAAUAAGGCUAGUCCGUUAUCAACUUGAAAAAGUGGCACCGAGUCGGUGCUUUU
Y
